// data source = patent US20130078247A1

test.system: T1, recombinant human DLL4 extracellular domain, C-terminally His-tagged (R&D Systems) (human, UniProt Q9NR61 25-522, biotinylated in the competition assays (sites not given))
T1 construct: also called rhDLL4; hDLL4; not shown: C-terminal His tag
T1 sequence (Q9NR61 25-522): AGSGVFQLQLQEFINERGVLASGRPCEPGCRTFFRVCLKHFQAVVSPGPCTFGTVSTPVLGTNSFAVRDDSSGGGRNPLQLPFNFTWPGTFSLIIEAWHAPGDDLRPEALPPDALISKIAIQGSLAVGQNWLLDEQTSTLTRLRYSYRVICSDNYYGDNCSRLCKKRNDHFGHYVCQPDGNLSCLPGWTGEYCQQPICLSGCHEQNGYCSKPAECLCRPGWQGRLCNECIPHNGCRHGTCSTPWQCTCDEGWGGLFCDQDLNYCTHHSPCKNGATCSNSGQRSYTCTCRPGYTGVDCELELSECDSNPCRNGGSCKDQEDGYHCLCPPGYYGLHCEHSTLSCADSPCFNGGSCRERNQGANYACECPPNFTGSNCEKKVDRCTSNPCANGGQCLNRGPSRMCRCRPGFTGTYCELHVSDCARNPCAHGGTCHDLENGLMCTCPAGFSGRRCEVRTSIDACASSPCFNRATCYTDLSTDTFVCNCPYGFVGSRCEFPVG
test.protocol: periplasmic extract; hDLL4 ELISA
Give % inhibition for every item shown.
Reply with the number, then its unit.

{"columns": ["binder", "observed.value"],
 "data": [
  ["DLLBII5B11 (VHH, also called DLLBII05B11; not shown: C-terminal c-myc and His6 tags) VHH: EVQLVESGGGLVQPGGSLRLSCAISGFTLDLHVIGWLRQAPGKEREWVSCISSSDGSTYYADSVKGRFTISRDNAKNTVYLQMNSLKPEDTAVYYCAAPWDSWYCGIGNDYDYWGQGTQVTVSS", "98%"],
  ["DLLBII33C05 (VHH, also called DLLBII33C5; not shown: C-terminal c-myc and His6 tags) VHH: EVQLVESGGGLVQAGGSLRLSCAASGFTLDNYVIGWFRQAPGKEREEVSCISSSGGSTDYLDSVKGRFTISRDNAKNTVYLQMNSLKPEDTAVYYCAADSLPCYYDKMVYDYWGQGTQVTVSS", "86%"],
  ["DLLBII19F12 (VHH, not shown: C-terminal c-myc and His6 tags) VHH: EVQLVESGGGLVQAGGSLRLSCTASGSTFTSYAMGWYRQAPGKQRELVAAISSDDSTYYADCVKGRFTISRDNAKNTVYLQMNSLKPEDTAVYYCNAPHSDYDEEAPSDFGSWGQGTQVTVSS", "98%"]
]}

Would you mind listing % inhibition for each of the following binders?
1. DLLBII8C11 (VHH, also called DLLBII08C11; not shown: C-terminal c-myc and His6 tags) VHH: EVQLVESGGGLVQAGGSLRLSCAASGFTFDDYAIGWFRQAPGKEREGVSCISSHDRTTYYADSVKGRFTISSDNAKNTVYLQMNSLKPEDTAVYYCAADPLVCGYNDPRLADYWGQGTQVTVSS
2. DLLBII17C01 (VHH, also called DLLBII17C1; not shown: C-terminal c-myc and His6 tags) VHH: EVQLVESGGGLVQAGGSLRLSCAASGFTFDDYPIGWLRQAPGKEREGVSCISSSDDSTYYADSVKGRFTISSNNAKNTVYLQMNSLKPEDTAVYYCAVRLFSGGCAVVAGTSWADFGSSGQGTQVTVSS
3. DLLBII28B06 (VHH, also called DLLBII28B6; not shown: C-terminal c-myc and His6 tags) VHH: EVQLVESGGGLVQAGGSLRLSCAASGSTFSTYAMGWYRQDPGNQRELVAAISSDGSTHYADSVKGRFTISRDNAKNTVYLQMNSLKPEDTAVYYCYAPVKVAGLEYDYWGQGTQVTVSS

Output:
1. 57%
2. 82%
3. 23%
